- Test system: ATP;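 also: ATP exposure 15 min at 22 °C before imaging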
- ASSAY PROTOCOL: switch fluorescence ratio, 500 uM ATP over buffer (Cy3 cluster intensity, sum of 5 cycles each) (fold (ratio)); higher = stronger signal-on switching upon ATP binding; sequences stand for … in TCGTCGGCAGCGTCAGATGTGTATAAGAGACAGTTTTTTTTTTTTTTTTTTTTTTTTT…TC
- EXPERIMENTAL SETUP: aptamer strand: ATP DNA aptamer (quencher-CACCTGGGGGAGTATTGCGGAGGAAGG + anchor), 100 nM annealed; ATP concentration: 500 uM
Reported values of switch fluorescence ratio for individual entries

# SEQUENCE CODE, switch fluorescence ratio
rows = [
    ("GGGTGTTTTT", 0.98),
    ("CAGGAAGCAG", 1.05),
    ("ACCTGGGTAC", 1.03),
    ("AGGGGCTATA", 0.97),
    ("ACGGCTGTCA", 0.999),
    ("TAAGATTTTT", 1.01),
    ("TTTATGAAAA", 1.02),
    ("CTTGTATTAG", 1.01),
    ("TATTGGGCAG", 1.01),
    ("CCCTGAGGGT", 1.01),
    ("CTAGAAAGGG", 0.999),
    ("CAGGAGGACT", 1.02),
    ("AGGTTGGTTA", 0.984),
    ("CGGCCCGCGA", 1.94),
    ("TTGACGATTT", 1.05),
    ("GGGAAGAATA", 0.986),
    ("CGGCCTTACC", 1.33),
    ("GAGTGCCTGG", 1.02),
    ("TAGGCGGTTT", 0.964),
    ("AGTTTTCCTG", 0.985),
    ("GGCCCTTTGG", 0.984),
    ("GGATGCTGTG", 0.991),
    ("TCCCTTTGGG", 0.971),
    ("GGCGGTTTGG", 1),
    ("ATTATTCACC", 1.01),
    ("TCATGGTGGG", 1),
    ("TTTTTCCGGC", 1.06),
    ("TTTAGAAAAT", 1.01),
    ("TATTTGTAGT", 1.01),
    ("TTTATGAGAC", 1.02),
    ("ATCCTGGGGT", 1.01),
    ("AAGCATCATT", 1.02),
    ("TTTAACATAT", 1.02),
    ("CGATGATGGA", 0.999),
    ("GGTCCAACTG", 0.987),
    ("GGGTTAGGTT", 1.01),
    ("GATAGCTGGT", 0.981),
    ("TTTTGCTGTG", 1.01),
    ("AAAACTTTGA", 1),
    ("ACCATGTAAG", 0.988),
    ("AATGTACCCA", 1.09),
    ("AGGTAGAATG", 0.998),
    ("AATCAGATCG", 0.962),
    ("TAAGGCAAGG", 1.03),
    ("GTTGGCATTT", 1.05),
    ("AGGTGGTAGT", 1),
    ("TTAAGCACCT", 1.3),
    ("GAGGGGAAGG", 0.958),
    ("CGGAGTGCGG", 0.983),
    ("TTTTTTAATG", 1),
    ("TTTGACGCGT", 1.02),
    ("ACTCAGGGGG", 1.27),
    ("AAAAGTTTTC", 0.975),
    ("ATGGGGCTGA", 0.993),
    ("TGGGGGGTTC", 1.04),
    ("CGGGACACGT", 0.968),
    ("GGGCTATCAT", 0.965),
    ("ACTTCCCAAC", 1.33),
    ("GTTGTAATAG", 1.09),
    ("CAATGTAGGT", 1.02),
    ("CGCTAGGGGA", 1.07),
    ("GTCTGTGGGT", 0.972),
    ("GGGCTCAGGC", 0.988),
    ("AGAGGGGAGG", 0.988),
    ("AAGCTTTGTG", 0.979),
    ("GCCGGTTAGA", 0.998),
]
